Here we list compounds with their recorded Kd when tested on PA protein (Influenza A virus, UniProt P15659).
Observable: Kd (µM)

C/C(=C\CC/C(C)=C/C[C@]1(O)C(=O)c2c(O)cc(C)c3c(O)c(C)c(O)c(c23)C1=O)CC/C=C(\CO)CC[C@@H](O)C(C)(C)O :: 11
CC(C)=CCC/C(=C/CC/C(C)=C/CC/C(C)=C/C[C@]1(O)C(=O)c2c(O)cc(C)c3c(O)c(C)c(O)c(c23)C1=O)CO :: 58

---

- Target Desc: TRIM25 (Homo sapiens, UniProt Q14258)
- Sequence (Q14258 whole entry, species assumed): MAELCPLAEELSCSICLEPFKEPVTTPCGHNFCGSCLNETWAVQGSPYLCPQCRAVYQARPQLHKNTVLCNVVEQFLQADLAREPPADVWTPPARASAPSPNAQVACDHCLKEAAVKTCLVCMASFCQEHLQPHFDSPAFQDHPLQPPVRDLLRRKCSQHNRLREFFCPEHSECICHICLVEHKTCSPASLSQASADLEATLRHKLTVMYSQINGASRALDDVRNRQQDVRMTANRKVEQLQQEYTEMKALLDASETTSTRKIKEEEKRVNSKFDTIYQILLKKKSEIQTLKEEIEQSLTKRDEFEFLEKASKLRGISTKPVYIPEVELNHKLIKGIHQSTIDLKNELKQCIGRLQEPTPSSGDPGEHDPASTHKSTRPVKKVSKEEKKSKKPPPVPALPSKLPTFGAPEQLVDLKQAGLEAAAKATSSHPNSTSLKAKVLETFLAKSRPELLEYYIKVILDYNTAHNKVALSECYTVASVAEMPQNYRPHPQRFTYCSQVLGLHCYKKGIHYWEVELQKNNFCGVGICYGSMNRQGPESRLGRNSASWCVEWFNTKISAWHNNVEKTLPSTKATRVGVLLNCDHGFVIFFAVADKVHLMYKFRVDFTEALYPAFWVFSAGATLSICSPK
- Assay Info: Biolayer interferometry (BLI) binding to TRIM25
- Recorded Conditions: in vitro
pKd: −log10 of the molar value.
Each entry below lists one item and its recorded pKd value.
Observable: pKd

CC(C)=CCC/C(=C/CC/C(C)=C/CC/C(C)=C/C[C@]1(O)C(=O)c2c(O)cc(C)c3c(O)c(C)c(O)c(c23)C1=O)CO :: 4.37 to 4.92
C/C(=C\CC/C(C)=C/C[C@]1(O)C(=O)c2c(O)cc(C)c3c(O)c(C)c(O)c(c23)C1=O)C/C=C/C1(C)CCC(C(C)(C)O)O1 (stereo partly drawn) :: 4.37 to 4.92
C/C(=C\CC/C(C)=C/C[C@]1(O)C(=O)c2c(O)cc(C)c3c(O)c(C)c(O)c(c23)C1=O)CC/C=C1/CCC(C(C)(C)O)OC1 (stereo partly drawn) :: 4.37 to 4.92

src = patent US20240343666A1
